# ASSAY_PROCEDURE: amyloid nucleation score (Sup35N fusion, yeast selection) (log enrichment); library NNK3; higher = more nucleation; inactive = no reads after selection;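 further: zero at mode of non-aggregating sequences after 7 days selection at 30°C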
ENDPOINT_NAME: amyloid nucleation score

Some solved cases for reference:
INSERT INTO measurements (substance, endpoint_name, result) VALUES
  ('TLCNFKCVYTGSLKIFHRYM', 'amyloid nucleation score', 1.91),
  ('EDFLNSWKVSYWKNHTMVVW', 'amyloid nucleation score', 'inactive'),
  ('LDSYVDFLTYFSQKGSRHHL', 'amyloid nucleation score', 'inactive'),
  ('STSVSYEWPDLGACIGGDFG', 'amyloid nucleation score', 'inactive'),
  ('CRIPALTTTMLITNG', 'amyloid nucleation score', 'inactive'),
  ('ELFMPDSIRT', 'amyloid nucleation score', 'inactive');

Measured amyloid nucleation score, YSCTFYTLCPENI : 1.85

Measured amyloid nucleation score, RKLNNTSTSHGICVGAWITN : inactive

Measured amyloid nucleation score, SAGMNMLYMYECKSSSMGFC : inactive

Measured amyloid nucleation score, GSFAGCMGCLCYILVCSVYR : 0.717

Source listed as the supplement of paper PMC12042874.
